B1: INTS4 (parent)
chain: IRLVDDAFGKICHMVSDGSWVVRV

# Variants of: B1
# PROTOCOL_DETAILS: protein stability index of a GFP-peptide fusion (GPS, HEK-293T) (PSI 1-6); higher = more stable;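 also: lentivirally expressed fusions sorted by FACS into six bins by GFP to DsRed ratio, PSI derived from sequencing read proportions per bin multiplied by bin number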
# ASSAY_CONDITIONS: c terminus: a fixed tail appended
MEASURE_NAME: protein stability index
Would you mind answering with just the numeric figure?

Some entries whose results are on file:
RESIDUE_STRING	protein stability index
IRLVDDGFGKICHMVSDGSWVVRV [A7G]	2.95
NRLVDDAFGKICHMVSDGSWVVRV [I1N]	3.6
IRLVDDAFGKICHMVSDGSWVKRV [V22K]	3.02
IRLVDDAFGKIHHMVSDGSWVVRV [C12H]	2.35
MRLVDDAFGKICHMVSDGSWVVRV [I1M]	3.29

Now consider a different variant.
Task: Which measured protein stability index value corresponds to IRLIDDAFGKICHMVSDGSWVVRV [V4I] ?
Result: 3.33
